# measurementProtocol: DUSP6 inhibitors restoring Erk phosphorylation by chemical complementation, primary imaging in DUSP6-transfected HeLa (AID 609)
# conditionContext: HeLa MKP-3 transfected, phospho-Erk imaging KS statistic; measured here: nuclear pErk red intensity z-score; at 10 µM; stronger effect = higher value; cells stimulated with TPA for 15 min
readoutLabel: z-score

Nc1ccc2oc(-c3ccccc3Cl)nc2c1 :: -0.135
CCOC(=O)CSc1nc(N)c(C(=O)Nc2ccc(N(C)C)cc2)s1 :: -1.52

Input: Look up z-score for this molecule: CCc1ccc(-c2cn3nc(C)c(C)nc3n2)cc1
Output: -0.591

Input: Look up z-score for this molecule: CCC(=O)N(Cc1cccs1)C1CCOC(C)(C)C1 (stereo unspecified)
Output: 0.0071

Input: Look up z-score for this molecule: COC(=O)Sc1nc(N2CCOCC2)c2c(c1C#N)CC(C)(C)OC2
Output: 1.3

Input: Look up z-score for this molecule: CC1(C)Cc2ccccc2-c2c1c(=O)n(-c1ccccc1)c1nnnn21
Output: -0.398

###

# measurementProtocol: inhibitors of poly I:C-induced TLR3 signaling, primary screen, cell-based, poly I:C stimulus, luciferase, 10K MLSCN set (AID 602277)
# conditionContext: HEK293-TLR3 RL24 IRF3 luciferase reporter, at 10 µM, stronger effect = higher value
readoutLabel: inhibition (%)
Give the value in % but do not write % after it.

Reference set (5 entries):
CCOC(=O)CN1CC23C=CC(O2)C(C(=O)Nc2ccc(OCC)cc2)C3C1=O (stereo unspecified) :: 15.5
Cc1ccc(-c2nc3cc(NC(=O)C(C)C)ccc3o2)cc1C :: 12.7
O=C(CSc1nnc(-c2ccccc2)o1)N1CCN(c2ccccc2)CC1 :: 2.42
CC(C)N1C(=O)C2C(C(=O)NC3CCCCC3)C3C=CC2(O3)C1C(=O)NC1CCCC1 (stereo unspecified) :: 18.1
CCOC(=O)N1CCN(CC(O)COc2ccccc2C(C)CC)CC1 (stereo unspecified) :: 35.4

Shifting focus to the molecule that follows.
Input: Look up inhibition for this molecule: CCOC(=O)CSc1nnc(NC(=O)c2cccc(S(=O)(=O)N3CCCCC3)c2)s1
Output: 26.3

###

# systemUnderTest: Voltage-gated potassium channel subunit beta-2 (Rattus norvegicus)
# measurementProtocol: KvBeta enzyme negative modulators, primary screen, biochemical, NADPH fluorescence (AID 622);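 further: slope of raw intensity against log time taken from 70 to 1610 s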
# conditionContext: recombinant KvBeta, 4-cyanobenzaldehyde reduction, at 10 µM
Active and inactive are the calls of the source.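 How the source made its calls: active means fluorescence slope higher than the sample average by over 3 SD (cut at about -0.22 in these data, passing the limit was not always enough); inactive means the rest.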
In this exercise, the only acceptable responses are label 1 (active), label 0 (inactive)

Consider the worked cases shown below.
CC12CN3CC(=O)N4CC5(C)CN(CC(C)(C4)C5=O)C(=O)CN(C1)CC(C)(C3)C2=O :: label 0
COc1ccc(-n2c(=O)c3c4c(sc3n3c(C)nnc23)CCCC4)cc1 :: label 0
NC(=O)C(c1ccccc1)C1CCCC1 (stereo unspecified) :: label 0
CCOC(=O)/N=C(/NC(=O)Nc1ccc(C(=O)OCC)cc1)OC :: label 0
c1ccc(-c2nn3c(Cn4nnc5ccccc54)nnc3s2)nc1 :: label 0

Input: // param item: Cc1ccc(S(=O)(=O)Cc2ccc(C(=O)N3CCN(Cc4ccccc4)CC3)o2)cc1 ; yields the recorded call
Output: label 0

Input: // param item: CN(C)c1ccc(C=Nc2cnn(C)c2C(N)=O)cc1 ; yields the recorded call
Output: label 0

Input: // param item: Cc1ccc(NC(=O)CN(C)S(=O)(=O)c2cccc3nsnc23)cc1Cl ; yields the recorded call
Output: label 0

Input: // param item: C=CCn1c(-c2ccc(OC)c(OC)c2)n[nH]c1=S ; yields the recorded call
Output: label 0

Input: // param item: CCCCCOc1ccccc1C(=O)NCCCC(=O)O ; yields the recorded call
Output: label 0

Input: // param item: O=c1cc(O)nc2n1CCCS2 ; yields the recorded call
Output: label 0

Input: // param item: CC1(C)NC(=O)N(CC(O)COc2cc3ccccc3cc2C(=O)N2CCCCC2)C1=O (stereo unspecified) ; yields the recorded call
Output: label 0

Input: // param item: O=C(O)CCc1nn2cc(-c3ccccc3)nc2[nH]c1=O ; yields the recorded call
Output: label 1

Input: // param item: O=C(Nc1cccnc1)Nc1ccccn1 ; yields the recorded call
Output: label 0

Input: // param item: COc1cc2c(N3CCOCC3)cc(O)c(CC(=O)Nc3ccccc3)c2cc1OC ; yields the recorded call
Output: label 0
